Some compounds, each annotated with its measured AUC(0-t).
# experimental details: 2 weeks GLP rat toxicology study with toxicokinetics
# Assay type: in vivo
# conditions: both, Wistar, plasma, po, 1000 mg/kg/day, AUC0-8, rat, EDI048 1000 mg/kg/day, day 14
attribute measured: AUC(0-t) (ng·h/mL)

In [3]: df
Out[3]:
                                   compound  attribute_measured  observed_measurement
0  COC(=O)c1cc(N(C)C(=O)c2ccn3ncc(-c4ccc(C(=O)O)cc4)c3c2)ccc1Cl [Compound 7]            AUC(0-t)                 0.221
1  CNC(=O)c1ccc(-c2cnn3ccc(C(=O)N(C)c4ccc(Cl)c(C(=O)OC)c4)cc23)cc1 [EDI048]            AUC(0-t)                  18.6
2  CNC(=O)c1ccc(-c2cnn3ccc(C(=O)N(C)c4ccc(Cl)c(C(=O)O)c4)cc23)cc1 [Compound 6]            AUC(0-t)                  1430
